Origin of values: the RNAGym collection of RNA variant scans (doi:10.1002/anie.201605470)

Reported self-cleavage is given for each of the following variants.
B1: Osa-1-4 twister ribozyme (parent)
chain: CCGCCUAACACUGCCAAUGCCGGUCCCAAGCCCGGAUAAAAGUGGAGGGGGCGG

Variants of: B1
Test: self-cleavage, relative activity (ratio to wild type); higher = more cleavage; co-transcriptional

{"columns": ["Ordered Residues", "self-cleavage"],
 "data": [
  ["CCGCCUCACACUGCCAAUGCCGGUCCCAAGCCCGGAUAUAAGUGGAGGGGGCGG [A39U A7C]", 0.04],
  ["CCGCCUAACACUGCCAAUGCCGGUCCCAAGCCCGGAUAGAAGUGAAGGGGGCGG [A39G G45A]", 0.13],
  ["CCGCCUAACACUGUCAAUGCCGGUCCCAAACCCGGAUAAAAGUGGAGGGGGCGG [C14U G30A]", 0.79],
  ["CCGCCUAACACUGGCAAUGCCGGUCCCAAGCCCGGAUGAAAGUGGAGGGGGCGG [A38G C14G]", 0.13],
  ["CCGCCUAACACUGCCAAUGCCGGUCGCAAGCCCGGAUAAACGUGGAGGGGGCGG [A41C C26G]", 0.09],
  ["CCGCCUAACACUGCUAAUGCCGGUCCCAAGCCCGGAUAAAAGUGGAGGUGGCGG [C15U G49U]", 0.04],
  ["CCGCCUAACACUGGCAAUGCCGGUCCCAAGCCCGGAUAAAACUGGAGGGGGCGG [C14G G42C]", 0.06],
  ["CCGCCUAACACUGCCAAUGCCGGUCCCAACCCCGGAUAACAGUGGAGGGGGCGG [A40C G30C]", 0.02],
  ["CCGCCUAACACUGCCAAUGCCGGUACCGAGCCCGGAUAAAAGUGGAGGGGGCGG [A28G C25A]", 0.04],
  ["CCGCCUAACACUGCCAAUGCCGGUCCCAAUCCCGGAUAAAUGUGGAGGGGGCGG [A41U G30U]", 0.04],
  ["CCGCCUAACACAGCCAAUGCCGGUCCCAAGCCCGGAUAAAAGUGGAGGGGGCGA [G54A U12A]", 0.48],
  ["CCGCCUAACACUGGCAAUGCCGGUCCCAUGCCCGGAUAAAAGUGGAGGGGGCGG [A29U C14G]", 0.04],
  ["CCGCCUAACACUGCCAAUGCCGGUCCCAAGCCCGGACAAAAGUGGAGGGGGCGG [U37C]", 1.04],
  ["CCGCCUAACACUGCCAGUGCCGGUCCCAAGCCCGGAUACAAGUGGAGGGGGCGG [A17G A39C]", 0.91],
  ["CCGCCUAACACUGCCAAUGCCGGUCCCAAGCCGGGAUAAAAGUGGAGCGGGCGG [C33G G48C]", 0.03],
  ["CCGCCUAACACUGCCAAUGCCGGUCCCAAGCCCGGAUAUAAGUGGACGGGGCGG [A39U G47C]", 0.07],
  ["CCGCCUCACACUGCCAAUGCCGGUCCCAAGCCCGGAUAAAAGUGGAGGGGUCGG [A7C G51U]", 0.03],
  ["CCGCCUAACACUGCCAAUGCCGGUCCCAACCCCGGAUAAAGGUGGAGGGGGCGG [A41G G30C]", 0.05],
  ["CCGCCUAACACUGCCGAUGCCGGUCCCAAGCGCGGAUAAAAGUGGAGGGGGCGG [A16G C32G]", 0.19],
  ["CCGCCUAAGACUGCCAAUGCCCGUCCCAAGCCCGGAUAAAAGUGGAGGGGGCGG [C9G G22C]", 0.05],
  ["CCGCCUAACACUGCCAAUGCCGGUCUCAAGCCCGGAUAAAAGUGGAGGGGGCGG [C26U]", 0.98],
  ["CCGCCUAACAAUGCCAAUGACGGUCCCAAGCCCGGAUAAAAGUGGAGGGGGCGG [C11A C20A]", 0.62]
]}
